Tested on: U937 cells
method_description: Cell viability assay (CellTiter-Blue) on lymphoma cell line U937
Assay type: cell-based
settings: Homo sapiens, U-937, 72 h treatment
Structures can show the parent of a compound that is named as a salt.
reported_metric: IC50 (µM)

Examples from the recorded data:
# molecule, system, IC50 [µM]
rows = [
    ("N=C1NCCCCCCCCNC(=N)NC(=N)NCCCCCCCCNC(=N)N1 [Coronaformin-8,8]", "U937 cells", 3),
    ("CN(CCCCCCCCN(C)C(=N)NC(=N)N)C(=N)NC(=N)N [LCC-8Me]", "U937 cells", 150),
    ("CCCNC(=N)NC(=N)NCCCCCCCCCCNC(=N)NC(=N)NCCC [LCC-10,3]", "U937 cells", 0.6),
]

(a) CN(C)C(=N)NC(=N)N [Metformin, 1,1-dimethylbiguanid hydrochloride, reference compound]
(b) N=C1NCCCCCCCCCCNC(=N)NC(=N)NCCCCCCCCCCNC(=N)N1 [Coronaformin-10,10]
Please compare: a and b . Report which one has the smaller IC50 value. Which one? Tell me its label.
b

---

Test system: U937 cells
method_description: Cell viability assay (CellTiter-Blue) on lymphoma cell line U937
Format: cell-based
settings: Homo sapiens, U-937, 72 h treatment
reported_metric: IC50 (µM)

# compound, value_units, reported_result
measured = [
    ("N=C(N)NC(=N)NCCCCCCCCCCCCNC(=N)NC(=N)N [LCC-12, lipophilic copper clamp C12]", "µM", 2),
]

(a) CN(CCCCCCCCCCCCN(C)C(=N)NC(=N)N)C(=N)NC(=N)N [LCC-12Me]
(b) N=C(N)NC(=N)NCCCCCCCCCCNC(=N)NC(=N)N [LCC-10]
(c) CCCNC(=N)NC(=N)NCCCCCCCCNC(=N)NC(=N)NCCC [LCC-8,3]
(d) CCNC(=N)NC(=N)NCCCCCCCCCCNC(=N)NC(=N)NCC [LCC-10,2]
(e) N=C1NCCCCCCCCCCCCNC(=N)NC(=N)NCCCCCCCCCCCCNC(=N)N1 [Coronaformin-12,12]
Please rank these compounds by IC50 in descending order. I would appreciate it if you listed the labels in the requested order.
b, a, c, d, e

Taken from patent US20230416196A1.
